- targetDesc: CDK12/CyclinK (Homo sapiens (Human))
- Sequence (Q9NYV4 whole entry): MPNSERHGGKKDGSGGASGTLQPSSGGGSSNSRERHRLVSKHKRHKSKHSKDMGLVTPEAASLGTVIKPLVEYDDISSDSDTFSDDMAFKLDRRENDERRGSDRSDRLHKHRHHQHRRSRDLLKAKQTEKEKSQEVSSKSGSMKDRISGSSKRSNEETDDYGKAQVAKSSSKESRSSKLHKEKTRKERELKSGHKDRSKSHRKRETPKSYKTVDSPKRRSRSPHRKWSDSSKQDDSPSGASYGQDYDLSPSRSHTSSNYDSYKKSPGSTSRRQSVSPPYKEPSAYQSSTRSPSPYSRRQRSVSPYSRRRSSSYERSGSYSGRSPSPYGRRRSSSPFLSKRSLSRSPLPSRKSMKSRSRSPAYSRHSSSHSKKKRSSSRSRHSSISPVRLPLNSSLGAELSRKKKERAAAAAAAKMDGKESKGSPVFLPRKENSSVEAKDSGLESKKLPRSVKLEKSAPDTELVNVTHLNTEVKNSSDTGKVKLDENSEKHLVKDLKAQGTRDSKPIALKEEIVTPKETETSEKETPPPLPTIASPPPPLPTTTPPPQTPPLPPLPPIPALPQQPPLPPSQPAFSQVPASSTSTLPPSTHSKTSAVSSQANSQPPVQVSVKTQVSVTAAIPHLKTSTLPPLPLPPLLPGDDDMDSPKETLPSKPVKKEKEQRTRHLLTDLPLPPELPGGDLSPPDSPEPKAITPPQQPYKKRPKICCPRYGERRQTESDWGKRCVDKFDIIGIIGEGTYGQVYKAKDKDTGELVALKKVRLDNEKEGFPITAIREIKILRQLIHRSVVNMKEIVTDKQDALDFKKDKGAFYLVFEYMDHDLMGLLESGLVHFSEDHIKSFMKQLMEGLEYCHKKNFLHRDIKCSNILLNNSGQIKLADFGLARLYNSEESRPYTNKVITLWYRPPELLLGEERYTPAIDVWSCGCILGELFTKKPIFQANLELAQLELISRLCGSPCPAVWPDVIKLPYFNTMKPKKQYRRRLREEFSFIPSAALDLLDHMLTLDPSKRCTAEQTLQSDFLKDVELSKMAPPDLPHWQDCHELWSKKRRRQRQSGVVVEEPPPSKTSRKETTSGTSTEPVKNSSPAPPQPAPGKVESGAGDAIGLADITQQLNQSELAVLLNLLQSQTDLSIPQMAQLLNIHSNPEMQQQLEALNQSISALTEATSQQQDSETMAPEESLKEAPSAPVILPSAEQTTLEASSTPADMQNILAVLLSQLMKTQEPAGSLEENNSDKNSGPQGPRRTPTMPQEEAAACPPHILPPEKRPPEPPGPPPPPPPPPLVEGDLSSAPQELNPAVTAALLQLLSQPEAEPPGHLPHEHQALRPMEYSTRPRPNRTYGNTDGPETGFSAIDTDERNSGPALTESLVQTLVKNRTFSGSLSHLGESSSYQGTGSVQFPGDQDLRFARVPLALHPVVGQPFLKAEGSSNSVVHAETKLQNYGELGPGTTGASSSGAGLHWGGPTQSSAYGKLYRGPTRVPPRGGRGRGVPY
- Sequence (O75909 whole entry partner): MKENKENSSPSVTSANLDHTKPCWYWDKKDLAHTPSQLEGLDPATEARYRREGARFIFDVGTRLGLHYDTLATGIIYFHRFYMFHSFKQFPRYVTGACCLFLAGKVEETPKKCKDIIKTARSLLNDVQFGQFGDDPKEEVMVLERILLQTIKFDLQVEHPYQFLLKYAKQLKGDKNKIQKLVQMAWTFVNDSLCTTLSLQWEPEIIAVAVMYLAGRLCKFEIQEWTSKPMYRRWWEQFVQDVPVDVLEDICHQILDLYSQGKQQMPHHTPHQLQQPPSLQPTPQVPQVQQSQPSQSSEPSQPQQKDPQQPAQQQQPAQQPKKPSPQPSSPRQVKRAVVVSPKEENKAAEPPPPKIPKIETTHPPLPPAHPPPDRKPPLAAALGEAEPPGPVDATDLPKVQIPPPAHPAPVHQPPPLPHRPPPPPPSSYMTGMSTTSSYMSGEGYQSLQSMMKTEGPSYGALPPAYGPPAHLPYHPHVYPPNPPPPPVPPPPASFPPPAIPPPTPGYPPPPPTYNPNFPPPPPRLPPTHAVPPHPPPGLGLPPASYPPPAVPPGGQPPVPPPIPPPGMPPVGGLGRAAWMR
- testMethodNotes: CDK12/cyclinK enzyme activity
- Type: biochemical
- measurementConditions: in vitro
Entries and their IC50
Please make sure the unit comes right after the number.

Below: 3 compounds and their reported IC50.
CC(C)n1cnc2c(NCc3ccc(-c4cccnc4)nc3)nc(-c3ccnc(N)c3)nc21 [Example 19] | 0.094 µM
CC(C)n1cnc2c(NCc3ccc(-c4cccnc4)nc3)nc(-c3ccnc(NCCCO)c3)nc21 [Example 38] | 0.113 µM
CC(C)n1cnc2c(NCc3ccc(-c4cccnc4)nc3)nc(-c3ccc(N)cc3)nc21 [Example 27] | 0.15 µM

*Q* For CDK12/CyclinK (Homo sapiens (Human)), provide IC50 of CC(C)n1cnc2c(NCc3ccc(-c4cccnc4)nc3)nc(-c3cn[nH]c3)nc21 [Example 23] please.
*A* 1.43 µM

* * *

- targetDesc: CYP2D6 (Homo sapiens (Human))
- Sequence (P10635 whole entry): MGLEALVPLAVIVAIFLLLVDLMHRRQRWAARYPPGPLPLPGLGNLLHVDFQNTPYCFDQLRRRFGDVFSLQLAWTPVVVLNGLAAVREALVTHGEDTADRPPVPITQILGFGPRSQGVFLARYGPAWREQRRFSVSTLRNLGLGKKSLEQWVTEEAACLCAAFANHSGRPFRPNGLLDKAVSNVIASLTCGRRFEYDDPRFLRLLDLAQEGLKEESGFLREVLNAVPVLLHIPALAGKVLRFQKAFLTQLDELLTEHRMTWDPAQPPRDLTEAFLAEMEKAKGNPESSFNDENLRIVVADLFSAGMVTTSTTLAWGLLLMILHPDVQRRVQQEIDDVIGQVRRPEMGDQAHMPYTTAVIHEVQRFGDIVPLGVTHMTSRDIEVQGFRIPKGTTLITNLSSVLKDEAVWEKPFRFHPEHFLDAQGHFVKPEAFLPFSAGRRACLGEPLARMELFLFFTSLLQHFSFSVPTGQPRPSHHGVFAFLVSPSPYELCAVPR
- testMethodNotes: CYP inhibitory activity
- Assay type: in vitro ADME
- measurementConditions: read-out: CYP % activity at 10 μM concentration 2D6
Consider the following molecules and their measured activity at 10 µM readings.
I only need the number, in %, no unit after it.

Examples from the recorded data:
CCn1cnc2c(NCc3ccc(-c4ccnc(C)c4)nc3)nc(-c3ccc(N)nc3)nc21 | 89.6
CCn1cnc2c(NCc3ccc(-c4ccnc(C)c4)nc3)nc(-c3cncnc3)nc21 | 88.8
CCn1cnc2c(NCc3ccc(-c4ccccn4)nc3)nc(-c3ccc(N)nc3)nc21 | 81

*Q* // lookup activity at 10 µM for CCn1cnc2c(NCc3ccc(-c4ccnc(C)c4)nc3)nc(-c3cnc(N)nc3)nc21
*A* 85.7

*Q* I would be grateful if you could share the reported activity at 10 µM for CCn1cnc2c(NCc3ccc(-c4ccccn4)nc3)nc(-c3cnc(N)nc3)nc21 .
*A* 92.1

* * *

# log10(IC50) listing for each entry below
- targetDesc: CDK12/CyclinK (Homo sapiens (Human))
- testMethodNotes: CDK12/cyclinK enzyme activity
- Format: biochemical
- measurementConditions: in vitro
Log scale reminder: IC50 in µM, then log10 taken.

CC(C)n1cnc2c(NCc3ccc(-c4cccnc4)nc3)nc(-c3ccc4[nH]ncc4c3)nc21 | -0.98
CC(C)n1cnc2c(NCc3ccc(-c4ccccn4)cn3)nc(-c3ccc(N)nc3)nc21 | -0.66

*Q* Find log10(IC50) (CDK12/CyclinK (Homo sapiens (Human))) for the entry CCn1cnc2c(NCc3ccc(-c4ccnc(C)c4)nc3)nc(-c3cnc(N)nc3)nc21
*A* -1.72

*Q* Record lookup: for CDK12/CyclinK (Homo sapiens (Human)), what log10(IC50) belongs to Cc1ccc(-c2nc(NCc3ccc(-c4cccnc4)nc3)c3ncn(C(C)C)c3n2)cn1 ?
*A* -1.05

*Q* Give recorded log10(IC50) with CDK12/CyclinK (Homo sapiens (Human)) for the following compound: CCn1cnc2c(NCc3ccc(-c4ccccn4)nc3)nc(-c3ccc(N)nc3)nc21
*A* -1.52

*Q* Give the reported log10(IC50) for CC(C)n1cnc2c(NCc3ccc(-c4cccnc4)nc3)nc(-c3ccc4cn[nH]c4c3)nc21 (system: CDK12/CyclinK (Homo sapiens (Human))).
*A* -0.75

*Q* # value lookup — system CDK12/CyclinK (Homo sapiens (Human)), readout log10(IC50), item CC(C)n1cnc2c(NCc3ccc(-c4cccnc4)nc3)nc(-c3cnc4ccccc4c3)nc21
*A* -0.31

*Q* Kindly state the measured log10(IC50) obtained for CC(C)n1cnc2c(NCc3ccc(-c4cccnc4)nc3)nc(-n3cc(CCO)nn3)nc21 with CDK12/CyclinK (Homo sapiens (Human)).
*A* -0.27

*Q* Form: Entry = CC(C)n1cnc2c(NCc3ccc(-c4cccnc4)nc3)nc(-c3ccc(C(N)=O)cc3)nc21 | System = CDK12/CyclinK (Homo sapiens (Human)) | log10(IC50) = ____
*A* -0.32
